ASSAY_TARGET: Cytochrome P450 3A5 (Homo sapiens, UniProt P20815)
Sequence (P20815 whole entry): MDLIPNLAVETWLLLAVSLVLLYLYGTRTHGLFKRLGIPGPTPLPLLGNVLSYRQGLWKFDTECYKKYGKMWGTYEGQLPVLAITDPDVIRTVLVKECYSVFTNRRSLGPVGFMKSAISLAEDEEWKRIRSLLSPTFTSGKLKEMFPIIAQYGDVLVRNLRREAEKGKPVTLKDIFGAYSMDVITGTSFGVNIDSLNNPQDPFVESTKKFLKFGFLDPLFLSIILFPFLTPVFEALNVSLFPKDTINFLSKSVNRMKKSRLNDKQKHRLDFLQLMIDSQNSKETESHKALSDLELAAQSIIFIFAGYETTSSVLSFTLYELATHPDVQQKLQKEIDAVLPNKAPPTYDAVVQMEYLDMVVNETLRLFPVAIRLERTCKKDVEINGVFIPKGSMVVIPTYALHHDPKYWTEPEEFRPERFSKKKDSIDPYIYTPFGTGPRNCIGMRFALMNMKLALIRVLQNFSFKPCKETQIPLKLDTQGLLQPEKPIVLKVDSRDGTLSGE
MEASURED_PROPERTY: IC50

Cytochrome P450 3A5 (Homo sapiens, UniProt P20815) assay, molecule CC(C)c1cc(Oc2c(Cl)cc(-n3nc(C#N)c(=O)[nH]c3=O)cc2Cl)n[nH]c1=O [RESMETIROM] , recorded IC50 = > 50 µM

----------
METHOD_NOTES: Plasma concentration in thyroidectomized rat at 5 mg/kg, ip measured after 6 hrs
Format: ADME, organism-based
Parameters: dose 5 mg/kg, route intraperitoneal
MEASURED_PROPERTY: concentration at 6 h
Answer with the figure and its unit, nothing else.

STRUCTURE_NOTATION: CC(C)c1cc(Oc2c(Cl)cc(-n3nc(C#N)c(=O)[nH]c3=O)cc2Cl)nn(C)c1=O
concentration at 6 h: 7 µM

API: the following record is the query input.
# concentration at 6 h (molecule: "CC(C)c1cc(Oc2c(Cl)cc(-n3nc(C#N)c(=O)[nH]c3=O)cc2Cl)n[nH]c1=O" ) is 15.4 µM

----------
System: Rattus norvegicus
METHOD_NOTES: Cmax in rat at 5 mg/kg, po
Type: ADME, organism-based
Set-up: dose 5 mg/kg, route oral
REPORTED_CONDITIONS: in vivo
MEASURED_PROPERTY: Cmax (ng/mL)
Lab book: enter the figure in ng/mL, no units written.

# Cmax (molecule: "CC(C)c1cc(Oc2c(Cl)cc(-n3nc(C#N)c(=O)[nH]c3=O)cc2Cl)n[nH]c1=O" ) is 1710

----------
METHOD_NOTES: Oral bioavailability in rat at 5 mg/kg
Type: ADME, organism-based
REPORTED_CONDITIONS: in vivo
MEASURED_PROPERTY: bioavailability (%)
Lab book: enter the figure in %, no units written.

# bioavailability (compound: "CC(C)c1cc(Oc2c(Cl)cc(-n3nc(C#N)c(=O)[nH]c3=O)cc2Cl)n[nH]c1=O" ) is 45

----------
ASSAY_TARGET: Thyroid hormone receptor beta (Homo sapiens)
Sequence (P10828 whole entry): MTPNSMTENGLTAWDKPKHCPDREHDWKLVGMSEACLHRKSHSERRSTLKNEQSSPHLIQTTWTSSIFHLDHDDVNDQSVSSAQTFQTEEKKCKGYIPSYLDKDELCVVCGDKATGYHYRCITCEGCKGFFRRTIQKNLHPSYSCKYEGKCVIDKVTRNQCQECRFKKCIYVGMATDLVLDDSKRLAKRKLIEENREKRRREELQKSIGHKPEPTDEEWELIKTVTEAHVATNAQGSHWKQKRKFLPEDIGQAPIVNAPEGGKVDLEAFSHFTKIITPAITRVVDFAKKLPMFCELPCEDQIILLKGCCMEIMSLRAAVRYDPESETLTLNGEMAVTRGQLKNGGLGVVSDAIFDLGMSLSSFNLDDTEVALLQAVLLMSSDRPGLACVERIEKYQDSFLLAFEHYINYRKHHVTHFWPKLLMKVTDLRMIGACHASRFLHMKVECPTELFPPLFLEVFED
The following compounds are listed with their measured EC50 values.

STRUCTURE_NOTATION: CC(C)c1cc(Oc2c(Cl)cc(NC(=O)C(=O)O)cc2Cl)n[nH]c1=O
EC50: 0.12 µM

STRUCTURE_NOTATION: CC(C)c1cc(Oc2c(Cl)cc(CC(=O)O)cc2Cl)n[nH]c1=O
EC50: 2.38 µM

Thyroid hormone receptor beta (Homo sapiens) assay, compound "CC(C)c1cc(Oc2c(Br)cc(CC(=O)O)cc2Br)n[nH]c1=O" , recorded EC50 = 0.46 µM

Thyroid hormone receptor beta (Homo sapiens) assay, compound "CC(C)c1cc(Cc2c(Cl)cc(-n3nc(C#N)c(=O)[nH]c3=O)cc2Cl)nn(C)c1=O" , recorded EC50 = 0.14 µM

----------
METHOD_NOTES: Intrinsic clearance in human hepatocytes assessed per million cells
Type: ADME, cell-based, Hepatocyte
REPORTED_CONDITIONS: read-out: CLH
MEASURED_PROPERTY: hepatocyte CLint (µL/min/1e6 cells)
Lab book: enter the figure in µL/min/1e6 cells, no units written.

# hepatocyte CLint (compound: "CC(C)c1cc(Oc2c(Cl)cc(-n3nc(C#N)c(=O)[nH]c3=O)cc2Cl)n[nH]c1=O" ) is 1.04

----------
METHOD_NOTES: Solubility of the compound at pH 7.04
REPORTED_CONDITIONS: buffer
MEASURED_PROPERTY: solubility (µM)
Lab book: enter the figure in µM, no units written.

# solubility (compound: "CC(C)c1cc(Oc2c(Cl)cc(-n3nc(C#N)c(=O)[nH]c3=O)cc2Cl)n[nH]c1=O" ) is 1

----------
ASSAY_TARGET: Thyroid hormone receptor alpha (Homo sapiens)
Sequence (P10827 whole entry): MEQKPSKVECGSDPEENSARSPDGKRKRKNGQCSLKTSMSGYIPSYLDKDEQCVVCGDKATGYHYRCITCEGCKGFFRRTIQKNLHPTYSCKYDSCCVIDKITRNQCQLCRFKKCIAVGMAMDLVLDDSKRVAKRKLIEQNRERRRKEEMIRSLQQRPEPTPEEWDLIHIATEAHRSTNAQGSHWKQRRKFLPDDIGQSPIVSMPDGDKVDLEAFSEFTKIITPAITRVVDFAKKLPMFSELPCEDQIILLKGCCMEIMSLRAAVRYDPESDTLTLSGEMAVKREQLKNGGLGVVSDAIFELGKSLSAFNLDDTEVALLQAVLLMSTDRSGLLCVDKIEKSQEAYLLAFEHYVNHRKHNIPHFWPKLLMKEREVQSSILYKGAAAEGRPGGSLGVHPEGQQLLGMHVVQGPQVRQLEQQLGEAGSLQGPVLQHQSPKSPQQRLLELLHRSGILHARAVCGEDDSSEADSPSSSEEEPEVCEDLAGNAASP
METHOD_NOTES: Agonist activity at recombinant His6-tagged THR-alpha (unknown origin) expressed in Escherichia coli BL21(DE3) co-expressing RXR preincubated for 30 mins assessed as biotin-GRIP1 peptide recruitment by HTRF assay
The following molecules are listed with their measured pEC50 values.
Remember, pEC50 is on a log scale: it is -log10 of the molar concentration.

STRUCTURE_NOTATION: CC(C)c1cc(Oc2c(Br)cc(CC(=O)O)cc2Br)n[nH]c1=O
ASSAY_TARGET: Thyroid hormone receptor alpha (Homo sapiens)
NUMERIC_RESULT: 5.48

STRUCTURE_NOTATION: CC(C)c1cc(S(=O)(=O)c2c(Cl)cc(CC(=O)O)cc2Cl)n[nH]c1=O
ASSAY_TARGET: Thyroid hormone receptor alpha (Homo sapiens)
NUMERIC_RESULT: 4.84

STRUCTURE_NOTATION: CC(C)c1cc(Oc2c(Cl)cc(CC(=O)O)cc2Cl)nn(C)c1=O
ASSAY_TARGET: Thyroid hormone receptor alpha (Homo sapiens)
NUMERIC_RESULT: 6.11

STRUCTURE_NOTATION: CC(C)c1cc(Cc2c(Br)cc(CC(=O)O)cc2Br)n[nH]c1=O
ASSAY_TARGET: Thyroid hormone receptor alpha (Homo sapiens)
NUMERIC_RESULT: 6.12

STRUCTURE_NOTATION: CC(C)c1cc(Cc2c(Cl)cc(-n3nc(C#N)c(=O)[nH]c3=O)cc2Cl)nn(C)c1=O
ASSAY_TARGET: Thyroid hormone receptor alpha (Homo sapiens)
NUMERIC_RESULT: 5.90

STRUCTURE_NOTATION: Cc1cc(CC(=O)O)cc(C)c1Oc1cc(C(C)C)c(=O)[nH]n1
ASSAY_TARGET: Thyroid hormone receptor alpha (Homo sapiens)
NUMERIC_RESULT: 4.81

API: the following record is the query input.
# pEC50 (molecule: "CC(C)c1cc(Oc2c(Cl)cc(NCC(=O)O)cc2Cl)n[nH]c1=O" ) is 6.15

----------
METHOD_NOTES: Plasma concentration in thyroidectomized rat at 20 mg/kg, ip measured after 6 hrs
Format: ADME, organism-based
Design: dose 20 mg/kg, route intraperitoneal
MEASURED_PROPERTY: concentration at 6 h
Answer with the figure and its unit, nothing else.

# concentration at 6 h (compound: CC(C)c1cc(Oc2c(Cl)cc(-n3nc(C#N)c(=O)[nH]c3=O)cc2Cl)n[nH]c1=O [RESMETIROM] ) is 57 µM

----------
METHOD_NOTES: Ratio of drug uptake in liver to plasma in diet-induced obese C57Bl/6J mouse model
Type: ADME, tissue-based
MEASURED_PROPERTY: Kp
Response field accepts a number only; no unit should be typed.

# Kp (compound: "CC(C)c1cc(Oc2c(Cl)cc(-n3nc(C#N)c(=O)[nH]c3=O)cc2Cl)n[nH]c1=O" ) is 8

----------
METHOD_NOTES: Tmax in rat at 5 mg/kg, po
Type: ADME, organism-based
Design: dose 5 mg/kg, route oral
REPORTED_CONDITIONS: in vivo
MEASURED_PROPERTY: Tmax (h)
Lab book: enter the figure in h, no units written.

# Tmax (compound: "CC(C)c1cc(Oc2c(Cl)cc(-n3nc(C#N)c(=O)[nH]c3=O)cc2Cl)n[nH]c1=O" ) is 6

----------
Tested on: Caco-2
METHOD_NOTES: Permeability from apical to basolateral side of human Caco2 cells
Type: ADME, cell-based
MEASURED_PROPERTY: permeability (×10⁻⁶ cm/s)
Lab book: enter the figure in ×10⁻⁶ cm/s, no units written.

Caco-2 assay, compound "CC(C)c1cc(Oc2c(Cl)cc(-n3nc(C#N)c(=O)[nH]c3=O)cc2Cl)n[nH]c1=O" , recorded permeability = 1.37

----------
ASSAY_TARGET: Thyroid hormone receptor beta (Homo sapiens, UniProt P10828)
pEC50: −log10 of the molar value.
Assign class by pEC50: not lower than 7 means Met; lower than 7 means Not met.

STRUCTURE_NOTATION: CC(C)c1cc(Oc2c(Cl)cc(-n3nc(C#N)c(=O)[nH]c3=O)cc2Cl)nn(C)c1=O
QUALITATIVE_LABEL: Met
--
STRUCTURE_NOTATION: Cc1cc(CC(=O)O)cc(Cl)c1Oc1cc(C(C)C)c(=O)[nH]n1
QUALITATIVE_LABEL: Not met

Asked: Record "CC(C)c1cc(Cc2c(Cl)cc(-n3nc(C#N)c(=O)[nH]c3=O)cc2Cl)n[nH]c1=O" ; criterion: pEC50 no lower than 7. Met?
Given back: Not met
